src = paper PMC4336329

molecular target: human ether-à-go-go-related gene (hERG) potassium channel (human); assay: primary screen, population patch clamp on CHO cells stably expressing hERG; higher = less effect of the substance;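 also: peak tail current of the secondary pulse compared with the same well before compound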
Sequence (Q12809 whole entry, looked up): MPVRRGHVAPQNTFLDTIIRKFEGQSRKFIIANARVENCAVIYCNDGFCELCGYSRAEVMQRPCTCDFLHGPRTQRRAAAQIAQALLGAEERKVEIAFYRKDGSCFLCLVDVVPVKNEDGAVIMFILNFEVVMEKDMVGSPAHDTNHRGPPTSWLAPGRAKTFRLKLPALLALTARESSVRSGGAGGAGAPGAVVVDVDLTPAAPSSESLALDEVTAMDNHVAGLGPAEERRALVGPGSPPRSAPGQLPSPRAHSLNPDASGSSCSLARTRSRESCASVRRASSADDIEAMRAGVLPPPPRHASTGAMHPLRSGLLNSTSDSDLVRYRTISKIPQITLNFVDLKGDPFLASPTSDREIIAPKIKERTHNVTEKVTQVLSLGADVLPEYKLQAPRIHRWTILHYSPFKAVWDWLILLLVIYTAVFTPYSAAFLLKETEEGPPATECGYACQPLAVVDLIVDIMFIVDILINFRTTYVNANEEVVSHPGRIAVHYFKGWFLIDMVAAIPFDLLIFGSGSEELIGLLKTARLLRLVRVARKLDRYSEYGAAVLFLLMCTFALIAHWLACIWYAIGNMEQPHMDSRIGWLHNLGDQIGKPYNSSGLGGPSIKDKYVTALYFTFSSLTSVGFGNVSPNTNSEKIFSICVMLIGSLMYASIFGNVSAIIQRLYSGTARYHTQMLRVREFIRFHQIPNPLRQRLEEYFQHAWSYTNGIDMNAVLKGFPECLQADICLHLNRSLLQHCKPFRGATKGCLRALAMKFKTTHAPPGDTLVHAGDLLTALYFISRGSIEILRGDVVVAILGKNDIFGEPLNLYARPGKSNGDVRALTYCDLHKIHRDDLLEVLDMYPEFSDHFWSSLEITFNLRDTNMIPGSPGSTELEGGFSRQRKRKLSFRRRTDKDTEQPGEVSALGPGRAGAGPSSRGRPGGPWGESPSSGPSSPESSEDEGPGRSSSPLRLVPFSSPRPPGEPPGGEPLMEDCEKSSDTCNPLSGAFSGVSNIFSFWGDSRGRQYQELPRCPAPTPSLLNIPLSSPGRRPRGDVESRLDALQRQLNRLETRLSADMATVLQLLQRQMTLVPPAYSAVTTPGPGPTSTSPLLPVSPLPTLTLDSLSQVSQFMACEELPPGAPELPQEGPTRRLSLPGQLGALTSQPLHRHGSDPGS
About 14,000 (4.5%) of roughly 310,000 compounds showed an effect of 50% or more. The effect is printed as a negative number. The full list was thinned out, with strong results kept by preference.
Kindly supply the reported hERG current change (%, negative = inhibition) at 10uM values for the records listed here.

human ether-à-go-go-related gene (hERG) potassium channel (human) data for O=C(Nc1ccccc1)c1cc(S(=O)(=O)Nc2cccnc2)ccc1Cl ; its hERG current change (%, negative = inhibition) at 10uM: -3.06%

human ether-à-go-go-related gene (hERG) potassium channel (human) data for CCOP(=S)(OCC)C(O)CCCCCn1c(=O)c(F)cn(C2CCCO2)c1=O (centres unmarked) ; its hERG current change (%, negative = inhibition) at 10uM: -2.13%

human ether-à-go-go-related gene (hERG) potassium channel (human) data for CCN(CC)S(=O)(=O)c1cc(C(=O)Nc2cccnc2Cl)ccc1Cl ; its hERG current change (%, negative = inhibition) at 10uM: 8.87%

human ether-à-go-go-related gene (hERG) potassium channel (human) data for CCN(CC)S(=O)(=O)c1cc(C(=O)Nc2cc(C)[nH]n2)ccc1Cl ; its hERG current change (%, negative = inhibition) at 10uM: -10.3%

human ether-à-go-go-related gene (hERG) potassium channel (human) data for O=C(CN1C(=O)S/C(=C\c2ccc(O)c([N+](=O)[O-])c2)C1=O)Nc1ccc(N2CCOCC2)cc1 ; its hERG current change (%, negative = inhibition) at 10uM: 12.2%

###

Kindly supply the reported hERG current change (%, negative = inhibition) at 10uM values for the records listed here.
biological target: human ether-à-go-go-related gene (hERG) potassium channel (human); assay: primary screen, population patch clamp on CHO cells stably expressing hERG; higher = less effect of the substance;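 also: peak tail current of the secondary pulse compared with the same well before compound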
Out of some 310,000 compounds screened, about 14,000 (4.5%) showed an effect of 50% or more. The effect is printed as a negative number. Shown is part of a subset that was picked to be rich in strong results.
Use % as the unit, but write only the number.

# compound CC(=O)c1cnc2nc(SCc3ccccc3)nn2c1C ; its hERG current change (%, negative = inhibition) at 10uM = 0.852

# compound COc1ccc(NC2CCCN(Cc3cccc4cnccc34)C2)cc1 (stereo not shown) ; its hERG current change (%, negative = inhibition) at 10uM = -18.5

# compound Cc1cccc(OCC(=O)Nc2ccccc2N2CCCCC2)c1 ; its hERG current change (%, negative = inhibition) at 10uM = 2.17

# compound CN1CCN(c2ccccc2NC(=O)COc2ccc(Cl)cc2)CC1 ; its hERG current change (%, negative = inhibition) at 10uM = -59.9

# compound CSc1ncccc1C(=O)OCC(=O)Nc1ccc2c(c1)CCC2 ; its hERG current change (%, negative = inhibition) at 10uM = 9.67

# compound CCOC(=O)C(NC(C)=O)C(=O)Nc1ccc(C)cc1C (stereo not shown) ; its hERG current change (%, negative = inhibition) at 10uM = 15.7

# compound CCn1c(=O)cc(OCC(=O)Nc2ccccc2C#N)c2ccccc21 ; its hERG current change (%, negative = inhibition) at 10uM = 6.06

# compound COc1cc(CCC(=O)Nc2cc(Cl)ccc2N2CCN(C)CC2)cc(OC)c1OC ; its hERG current change (%, negative = inhibition) at 10uM = -10.2

# compound CC(C)[C@@H](C(=O)NCC1CCC(C(=O)O)CC1)n1nnc2ccccc2c1=O (stereo partly shown) ; its hERG current change (%, negative = inhibition) at 10uM = 19.1

# compound Cc1cc(N2CCCCC2)nc2ccccc12 ; its hERG current change (%, negative = inhibition) at 10uM = -9.74
